Test system: RXF-393 human kidney carcinoma cell line
assay-explanation: cells
setup-conditions: Homo sapiens, RXF 393, 72 h
Procedure: a. […] Briefly, cells were harvested and seeded in 96 well microtiter plates at a density of 5,000 cells in 150 μL of culture medium and incubated for 24 hours in drug-free medium before treatment with vehicle alone or test compounds for 72 h. The cytotoxic effect was measured by the MTT reduction assay, in which 3-(4,5-Dimethylthiazol-2-yl)-2,5-diphenyltetrazolium bromide, a tetrazole, which is reduced to purple formazan in the mitochondria of living cells, was used. […]
Please respond with reported IC50 for every item in the list.
Give bare numbers, in µM.

Some solved cases for reference:
O=P1(N(CCCl)CCCl)NCCCO1 (centres unmarked) [Cyclophosphamide, cyclophosphamide] ... 1000
C#Cc1cccc(Nc2ncnc3cc(OCCOC)c(OCCOC)cc23)c1 ... 4.8
CCc1c2c(nc3ccc(OC(=O)N4CCC(N5CCCCC5)CC4)cc13)-c1cc3c(c(=O)n1C2)COC(=O)[C@]3(O)CC ... 14
CN(Cc1cnc2nc(N)nc(N)c2n1)c1ccc(C(=O)N[C@@H](CCC(=O)O)C(=O)O)cc1 [Methotrexate, methotrexate] ... 175

Now look at this entry.
Exercise: What value of IC50 has been recorded for this entry: `COc1ccc2[nH]c3c(c2c1)CCN[C@]31CS[C@@H]2c3c(OC(C)=O)c(C)c4c(c3[C@H](COC1=O)N1[C@@H]2[C@H]2c3c(cc(C)c(OC)c3O)C[C@@H]([C@@H]1O)N2C)OCO4`
Solution: 0.005
